Molecular target: 2C11 human monoclonal antibody
Assay: competition ELISA: 2C11 preincubated with peptide at 200 (µM per paragraph 93), then on immobilised FVIII
Where no end group is shown, it is not given here.
Record form. Attribute: % inhibition. Fill in for each entry.
A complete answer gives the number and then names the unit.

Please state % inhibition for every binder in the list that follows.
1. Ac-RCHAWSNRKSCV (cysteine pairing not given here) [peptide 109 (…)]
2. Ac-SCHAWSNRRTCR (cysteine pairing not given here) [peptide 107 (…)]
3. Ac-KCGRWSNRSSCT (cysteine pairing not given here) [peptide 103 (…)]
4. Ac-CMKWSNRSSRWC (cysteine pairing not given here) [peptide 106 (…)]
5. Ac-CSKWHNRSKRHC (cysteine pairing not given here) [peptide 105 (…)]
6. Ac-ECGSHAWGRRCK (cysteine pairing not given here) [peptide 104 (…)]
7. Ac-QCHTWSNRRSCL (cysteine pairing not given here) [peptide 108 (…)]

Result:
75%
90.5%
62.7%
36.6%
75.6%
63.7%
60.7%
